experiment: NCI Yeast Anticancer Drug Screen. Data for the bub3 strain (AID 167); details: S. cerevisiae bub3 mutant strain, at 50.0 µM
This is part of a sample that, as a whole, favours compounds with a hit. Of some 79,000 tested, about 15% had one in any assay. The source made the active and inactive calls. Rule as the data show it: active = growth inhibition above about 70%; inactive = the rest.
Possible outcomes: active, inactive

{"columns": ["COMPOUND", "QUALITATIVE_LABEL"],
 "data": [
  ["CC(=O)O[C@H]1CC[C@@]2(C)C(=CC[C@@H]3[C@@H]2CC[C@]2(C)C(=O)[C@@H](CN4CC4)C[C@@H]32)C1", "inactive"],
  ["O=[N+]([O-])c1ccc([N+](=O)[O-])c2nsnc12", "active"],
  ["COP(=O)(OC)OC.COP(=O)(OC)OC.COP(=O)(OC)OC.COP(=O)(OC)OC.COP(=O)(OC)OC.COP(=O)(OC)OC.[Mn+2].[O-][Cl+3]([O-])([O-])O", "inactive"],
  ["CC(NC(=O)C(c1ccccc1)c1ccccc1)C(=O)O (stereo not drawn)", "inactive"],
  ["C[N+](C)=c1nc(N2CCc3ccccc3C2)ss1", "inactive"],
  ["CC(=O)C1(c2ccccc2)CCCN(C)CC1 (stereo not drawn)", "inactive"],
  ["CC1=C[C@H]2O[C@H]3C[C@H]4OC(=O)/C=C\\C=C\\C(=O)OCC[C@@H](C)[C@H](O)C(=O)OC[C@@]2(CC1)[C@@]4(C)[C@]31CO1", "active"],
  ["C(=P(c1ccccc1)(c1ccccc1)c1ccccc1)[P+](c1ccccc1)(c1ccccc1)c1ccccc1.[Cl][Fe]([Cl])([Cl])[Br]", "active"],
  ["CC1=C[C@H]2O[C@H]3C[C@H]4OC(=O)/C=C\\C=C\\C(=O)OCC[C@@H](C)C(O)C(=O)OC[C@@]2(CC1)[C@@]4(C)[C@]31CO1 (stereo partly drawn)", "active"],
  ["O=C(O)C1C(C(=O)O)C2(Cl)C(Cl)=C(Cl)C1(Cl)C2(Cl)Cl.[Cd] (stereo not drawn)", "inactive"],
  ["COc1ccc2n[se]nc2c1", "inactive"],
  ["COC(=O)C1C(c2ccc(-c3ccccc3)cc2)N1C1CCCCC1 (stereo not drawn)", "inactive"],
  ["NC(CCl)=NC1CN2CCC1CC2 (stereo not drawn)", "inactive"]
]}
